# Tested on: LTC4 induced contractions of the guinea pig ileum
# Assay Summary: Guinea Pig Ileum Test: inhibition of LTC4-induced guinea pig smooth muscle contractions
# Assay type: cell-based
# Test Settings: Cavia porcellus, 6 nanomoles LTC4
Counter-ions that a name gives are not always drawn.
Assay Readout: IC50 (µM)

Consider the following illustrative entries.
[
  {
    "Molecule": "COc1ccc(CCc2ccc3c(=O)n(CCCN(C)C)ncc3c2)cc1",
    "Assay Readout": "IC50",
    "Result Number": 16.8
  },
  {
    "Molecule": "Br.COc1ccc(/C=C/c2ccc3c(=O)n(CCCN(C)C)ncc3c2)cc1 [Example XII, hydrobromide]",
    "Assay Readout": "IC50",
    "Result Number": 13.6
  },
  {
    "Molecule": "CSc1ccc(/C=C/c2ccc3c(=O)n(CCCN(C)C)ncc3c2)cc1",
    "Assay Readout": "IC50",
    "Result Number": 10
  },
  {
    "Molecule": "COc1ccc(/C=C/c2ccc3c(=O)n(CCCCN(C)C)ncc3c2)cc1",
    "Assay Readout": "IC50",
    "Result Number": 10
  }
]

(P) COc1ccc(/C=C\c2ccc3c(=O)n(CCCN(C)C)ncc3c2)cc1
(Q) COc1ccc(/C=C/c2ccc3c(=O)n(CCN(C)C)ncc3c2)cc1 [Example III, hydrobromide]
(R) COc1ccc(/C=C/c2ccc3c(=O)n(CCCN4CCCCC4)ncc3c2)cc1 [Example II, hydrobromide]
(S) COc1ccc(/C=C/c2ccc3c(=O)n(CCN4CCOCC4)ncc3c2)cc1 [Example IV, hydrobromide]
(T) CN(C)CCn1ncc2cc(/C=C/c3ccc(O)cc3)ccc2c1=O [Example XIV, hydrochloride]
Sort ascending by IC50. Output spec: a listing of the labels in the requested order.
S, R, P, Q, T
(S: 0.1 µM, R: 3.4 µM, P: 10.5 µM, Q: 16.6 µM, T: 31.6 µM)
